Tested on: ACHN
test-description: NCI tumour cell line growth inhibition, 48 h
Calls of active or inactive are those of the source. Cut-off read from the data, not from the text of the source: active = GI50 up to about 1.1 µM and inactive = higher.
Your reply should match one of these outcome classes. active, inactive

Example cases with answers are listed next.
* CN1CCN(CN2C(=O)C3C4C=CC(C3C2=O)C2C3C(=O)N(CN5CCN(C)CC5)C(=O)C3C42)CC1 (stereo not given) | inactive
* O=C(Sc1c(-c2ccccc2)c(=O)n(-c2ccccc2)c(=S)n1-c1ccccc1)c1ccccc1 | inactive
* NC(=O)c1sc2nc3ccccc3n2c1N | inactive
* NC(=O)c1ncn2c1NCC1OC2C(O)C1O (stereo not given) | inactive
* N#CC(C#N)=c1ccc(=C2N3CCCC3CN2C23CC4CC(CC(C4)C2)C3)cc1 (stereo not given) | inactive
* COCCN(C(C)=O)C1CCC2(SCCS2)c2[nH]c3ccccc3c21 (stereo not given) | inactive

Problem: Give the logged outcome of this assay for the following compound: CC(=O)NC(CC(C)C)C(=O)NC(CC(C)C)C(=O)NC(C=O)CCCNC(=N)N (stereo not given)
Result: inactive

Problem: Give the logged outcome of this assay for the following compound: CC1(C)C(CCO)CC1n1ccc(=O)[nH]c1=O (stereo not given)
Result: inactive

Problem: Give the logged outcome of this assay for the following compound: N#C/C(=C\c1ccccc1O)C(N)=O
Result: inactive

Problem: Give the logged outcome of this assay for the following compound: COC(=O)c1csc(-c2csc(CCNC(=O)OC(C)(C)C)n2)n1
Result: inactive

Problem: Give the logged outcome of this assay for the following compound: COc1cc(-c2c3c([nH]c(=O)c2C#N)-c2cc([N+](=O)[O-])ccc2CCC3)cc(OC)c1OC
Result: inactive

Problem: Give the logged outcome of this assay for the following compound: COC(=O)c1ccccc1C1CN=NC12Cc1ccc3c(c1C2=O)CCC3 (stereo not given)
Result: inactive
